assay: Toxicity in human RBC assessed as hemolysis; assay type: cell-based, Erythrocyte; details: red blood cells (RBC)
pIC50: −log10 of the molar value.
experimentalReadout: pIC50

# substance, testResult
records = [
    ("H-PVLDEFREKLNEELEALKQKLK-OH", 4.40),
]
